Exercise: state measured growth for each of the molecules provided.
system: SF-539 CNS; assay: NCI-60 one-dose screen, 48 h (100 = growth as untreated, 0 = no growth, -100 = all killed); conditions: 10 µM unless noted
Compounds without any hit were thinned out: in the full panel of roughly 83,000, 20% have a hit. Active and inactive are the calls of the source. How the source made its calls: active means growth percent below 10; inactive means the rest.

Please review the entries below; each comes with its answer.
| molecule | growth |
| --- | --- |
| C[C@H]1[C@@H]2[C@H]3CC[C@@H]4[C@@]5(C)Cc6c([nH]c7ccccc67)C(C)(C)[C@@H]5CC[C@@]4(C)[C@]3(C)CC[C@]23CO[C@]1(C)[C@@H](C(=O)/C=C/c1ccccn1)C3 | 84.9% (inactive) |
| O=C(/C=C/c1ccc2ccccc2c1)Nc1ncc(Cc2ccccc2)s1 | 78.2% (inactive) |
| COc1cc(/C=C/c2cc(/C=C/c3ccc(O)c(OC)c3)n(-c3ccc(Cl)cc3)c(=O)n2)ccc1O | 78.1% (inactive) |
| COc1cc2nc(Cl)nc(Nc3cccc(C(=O)/C=C/c4ccc(Cl)cc4)c3)c2cc1OC | 50% (inactive) |
| Clc1cc(Cl)cc(Nc2ccc3c(OCCCN4CCOCC4)cccc3n2)c1 | 48.1% (inactive) |

Respectfully, I request growth for each entry included below.
1. O=C(NC(Cc1cn(Cc2ccccc2)cn1)C(=O)O)OCC1c2ccccc2-c2ccccc21 (centres undefined)
2. CCCCC/C(=C\c1ccccc1)C1OC(C)C(C)O1 (centres undefined)
3. CC(C)(C)c1cc(-n2c(-c3ccc(Cl)cc3)nc3cc(C(=O)Nc4ccc(Cl)cc4)ccc32)n[nH]1

## Output
94.6% (inactive)
99.7% (inactive)
82.9% (inactive)

## Input Please give the documented growth of Fc1ccc(Nc2ccc3c(OCCCN4CCOCC4)cccc3n2)cc1F
## Output 52.2% (inactive)

----------
tested on: MOLT-4 leukemia; test: NCI-60 one-dose screen, 48 h (100 = growth as untreated, 0 = no growth, -100 = all killed); conditions: 10 µM unless noted
The panel holds about 83,000 compounds, 20% with a hit somewhere; the sample as a whole holds those more often.
assay_metric: growth (%)
One number for each entry, in %.

Please review the entries below; each comes with its answer.
| molecule | growth (%) |
| --- | --- |
| CN1CCN(CC#CCn2c3c(c4ccccc42)C[C@]2(C)[C@H]4CC[C@@H]5[C@H]6[C@H]7OC(=O)[C@@]6(CCC7(C)C)CC[C@@]5(C)[C@]4(C)CC[C@H]2C3(C)C)CC1 | 41.6 |
| Cn1cc(-c2csc(-c3cn(CCN)c4ccccc34)n2)c2cccnc21 | 10.1 |
| Nc1ccc(Cl)cn1 | 102 |
| COc1ccc(C2c3ccccc3NC(=O)N2C2CCN(C)CC2)c(OC)c1 (stereo not given) | 99.5 |

## Input Provide growth, system MOLT-4 leukemia, entry COc1ccc(-c2n[nH]nc2-c2cc3ccccc3s2)cc1O
## Output 15.1

----------
system: HCT-116 colon; test: NCI-60 one-dose screen, 48 h (100 = growth as untreated, 0 = no growth, -100 = all killed); settings: 10 µM unless noted
The panel holds about 83,000 compounds, 20% with a hit somewhere; the sample as a whole holds those more often.
# note: exactly 20% is not below, so it is 0; use 1 for growth strictly under it

Some solved entries appear below for comparison.
| given_smiles | measured_on | class_name |
| --- | --- | --- |
| CCCCn1c(-c2ccc(O)cc2)cn2c3c(=O)[nH]c(=O)n(C)c3nc12 | HCT-116 colon | 0 |
| N#C/C(=C\c1ccc(-c2cccc(C(F)(F)F)c2)o1)c1nc(-c2ccco2)cs1 | HCT-116 colon | 0 |
| O=C1/C(=C\C(Cl)=C/c2ccc([N+](=O)[O-])cc2)SC(=S)N1CCc1ccc(O)cc1 | HCT-116 colon | 1 |
| COc1ccccc1-n1cnc(N)c1C(=O)c1cc(OC)c(OC)c(OC)c1 | HCT-116 colon | 0 |

## Input For this compound, is growth lower than 20%? O=C(/C=C/c1cccc2ccccc12)Nc1ncc(Cc2ccccc2)s1
## Output 1

----------
system: OVCAR-3 ovarian; assay: NCI-60 one-dose screen, 48 h; conditions: 10 µM unless noted
This is part of a sample that, as a whole, favours compounds with a hit. Of some 83,000 tested, about 20% had one in any assay. Active and inactive are the calls of the source. The calls were made as follows: active = growth percent below 10; inactive = the rest.
API: response.call in active, inactive

Some solved entries appear below for comparison.
| compound | class_name |
| --- | --- |
| COc1ccc(-c2cc(/C=C/C(=O)c3ccc(N)cc3)[nH]n2)cc1 | active |
| COC(=O)[C@]12CC[C@@H](C(C)=O)[C@@H]1[C@H]1CC[C@@H]3[C@@]4(C)C/C(=C/c5cccnc5)C(=O)C(C)(C)[C@@H]4CC[C@@]3(C)[C@]1(C)CC2 | inactive |
| Cc1cccc(C)c1NCc1nc(-c2ccccc2)n[nH]1 | inactive |
| Cc1ccsc1-c1ccc2c(c1)COC2(CCCN(C)C)c1ccc(F)cc1 (stereo not given) | inactive |

Turning now to a further record.
## Input In this assay, the call recorded for COc1cc(/C=C/c2cc(/C=C/c3ccc(O)c(OC)c3)n(-c3ccccc3)c(=O)n2)ccc1O was what?
## Output inactive

----------
system: MCF7 breast; test: NCI-60 one-dose screen, 48 h; conditions: 10 µM unless noted
This is part of a sample that, as a whole, favours compounds with a hit. Of some 83,000 tested, about 20% had one in any assay. Calls of active or inactive are those of the source. How the source made its calls: active means growth percent below 10; inactive means the rest.
API: response.call in true (1) for active, false (0) for inactive

| compound | measured_on | class_name |
| --- | --- | --- |
| O=C1C(=O)c2ccccc2C(O)=C1CCCc1ccc(C2CCCCC2)cc1 | MCF7 breast | false (0) |

## Input In this assay, the call recorded for COc1ccc(OCC(CO)N2CCN(c3ccccc3)CC2)cc1 (centres undefined) was what?
## Output false (0)

## Input In this assay, the call recorded for O=C1CCCC=CC[C@H]2C=C(Cl)C(=O)C2=CC[C@H](CCCCC(F)(F)F)OC(=O)CCCC=CC[C@H]2C=C(Cl)C(=O)C2=CC[C@H](CCCCC(F)(F)F)OC(=O)CCCC=CC[C@H]2C=C(Cl)C(=O)C2=CC[C@H](CCCCC(F)(F)F)O1 was what?
## Output false (0)

## Input In this assay, the call recorded for Fc1ccc2nc(-c3cc(-c4ccc5c(c4)OCO5)n[nH]3)[nH]c2c1 was what?
## Output false (0)

## Input In this assay, the call recorded for NC1=NN(c2ccccc2)C(=O)/C1=C/c1ccc(Cl)cc1 was what?
## Output false (0)

## Input In this assay, the call recorded for CCN(CC)c1ccc(/C=C/c2cc(C)c3ccccc3n2)cc1 was what?
## Output false (0)

----------
test system: SN12C renal; test: NCI-60 one-dose screen, 48 h (100 = growth as untreated, 0 = no growth, -100 = all killed); settings: 10 µM unless noted
Compounds without any hit were thinned out: in the full panel of roughly 83,000, 20% have a hit. Calls of active or inactive are those of the source. How the source made its calls: active means growth percent below 10; inactive means the rest.
assay_metric: growth

| molecule | assay_metric | recorded_value |
| --- | --- | --- |
| Clc1cc(Cl)cc(Nc2ccc3c(OCCCN4CCOCC4)cccc3n2)c1 | growth | 76.1% (inactive) |

Respectfully, I request growth for each entry included below.
1. O=C1CCC/C=C\C[C@H]2C=C(Cl)C(=O)/C2=C/C[C@H](CCCCC(F)(F)F)OC(=O)CCC/C=C\C[C@H]2C=C(Cl)C(=O)/C2=C/C[C@H](CCCCC(F)(F)F)O1
2. Cc1ccccc1-c1nc(C(Cl)Cl)nc2cc(-c3ccccc3)nn12

## Output
1. -27.1% [7.5 µM] (active)
2. 81.4% (inactive)

Respectfully, I request growth for each entry included below.
1. O=C1C=Cc2ncccc2C1=O
2. C=C(C)[C@@H]1CC[C@]2(C=NCCCNCCCCNCCCN)CC[C@]3(C)[C@H](CC[C@@H]4[C@@]5(C)CCCNC(C)(C)[C@@H]5CC[C@]43C)[C@@H]12
3. O=S(=O)(NCCNc1cc(-c2cn(-c3ccccc3)nc2-c2cccc(O)c2)ccn1)c1ccc(C(F)(F)F)cc1
4. CCN1CCN(C(=O)[C@@]2(C)CC[C@]3(C)CC[C@]4(C)C(=CC(=O)[C@@H]5[C@@]6(C)CC[C@H](OCCC#N)C(C)(C)[C@@H]6CC[C@]54C)[C@@H]3C2)CC1
5. C[C@H]1[C@@H]2[C@H]3CC[C@@H]4[C@@]5(C)Cc6c([nH]c7ccccc67)C(C)(C)[C@@H]5CC[C@@]4(C)[C@]3(C)CC[C@]23CO[C@]1(C)[C@@H](C(=O)/C=C/c1ccccn1)C3
6. C#Cc1cc2c(N)c(C(=O)c3cc(OC)c(OC)c(OC)c3)[nH]c2cc1OC

## Output
["65.2% (inactive)", "91.1% (inactive)", "33.9% (inactive)", "83.1% (inactive)", "87.1% (inactive)", "67.9% (inactive)"]
